Consider the following molecules; for each one, report its inhibition.
# protocolDetails: growth inhibition, single agents and combos, LFS_MB_1R, cell-based, cisplatin or BGB combos, synergistic combos for chromothripsis tumors (AID 1671452);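 also: cells exposed for 96 hours before readout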
# testContext: LFS_MB_1R medulloblastoma cells, measured here: combination with cisplatin, at 0.5 µM, stronger effect = higher value
Non-standard residues stand in square brackets, D forms with d. Residues, ends and D or L forms follow the SMILES beside them. Dolaproine = CO[C@@H]([C@@H]1CCCN1)[C@@H](C)C(=O)O; Dil = CC[C@H](C)[C@H](NC)[C@@H](CC(=O)O)OC; NMeV = CN[C@H](C(=O)O)C(C)C
Give bare numbers, in %.

Some molecules with recorded inhibition:
>>> number("Cc1c(Br)cc(NCC(=O)N/N=C/c2cc([N+](=O)[O-])ccc2O)cc1Br")
-16.8
>>> number("O=C(CCCCCCC(=O)NO)NO")
-39.7
>>> number("COc1nc(N)nc2c1ncn2[C@@H]1O[C@H](CO)[C@@H](O)[C@H]1O")
-34.3

Please find the next molecule below.
Ask: // returns reported inhibition for input CC[C@H](C)[C@@H]([C@@H](CC(=O)N1CCC[C@H]1[C@H](OC)[C@@H](C)C(=O)N[C@@H](Cc1ccccc1)C(=O)O)OC)N(C)C(=O)[C@@H](NC(=O)[C@@H](NC)C(C)C)C(C)C (H-[NMeV]V[Dil][Dolaproine]F-OH)
Reply: -7.82
